Target Or System: T1, recombinant human SOST (rhSOST) (human, UniProt Q9BQB4 24-213)
T1 construct: Treated as one molecule; also called recombinant human SOST protein; human sclerostin
T1 sequence: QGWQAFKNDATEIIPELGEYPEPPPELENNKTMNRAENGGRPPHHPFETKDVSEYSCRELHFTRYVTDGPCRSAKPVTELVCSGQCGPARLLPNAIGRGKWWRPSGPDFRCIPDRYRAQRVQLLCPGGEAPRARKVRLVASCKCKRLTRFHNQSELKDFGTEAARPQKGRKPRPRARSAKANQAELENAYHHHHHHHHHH
Measurement Notes: SPR Biacore T200, IgG captured via anti-human Fc, rhSOST analyte, 37 C
Observed Property: kon (M⁻¹ s⁻¹)
Reply with just the number (in M⁻¹ s⁻¹).

Which kon reading was recorded for the binder DM20 (antibody, V domains shown, also called mH1/wt) VH: EVQLLESGGGLVQPGGSLRLSCAASGHTFSDYWMQWVRQAPGKGLEWIGAIYPGDGDTRYNQKFKDRFTISRDNSKNTLYLQMNSLRAEDTAVYYCARSMDYWGQGTLVTVSS VL: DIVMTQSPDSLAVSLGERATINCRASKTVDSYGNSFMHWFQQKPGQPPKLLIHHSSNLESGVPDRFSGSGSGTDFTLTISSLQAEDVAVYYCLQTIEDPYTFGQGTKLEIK ?
7.83e+06

Which kon reading was recorded for the binder DM3 (antibody, V domains shown, also called mH10/mL15) VH: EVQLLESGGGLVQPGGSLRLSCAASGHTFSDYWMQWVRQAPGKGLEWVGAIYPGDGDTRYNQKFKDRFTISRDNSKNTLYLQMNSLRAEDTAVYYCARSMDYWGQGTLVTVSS VL: DIVMTQSPDSLAVSLGERATINCRASKTVDSYGNSFMHWYQQKPGQPPKLLIYHSSNLESGVPDRFSGSGSGTDFTLTISSLQAEDVAVYYCLQTIEHPYTFGQGTKLEIK ?
1.55e+06

Which kon reading was recorded for the binder DM14 (antibody, V domains shown, also called wt/mL3) VH: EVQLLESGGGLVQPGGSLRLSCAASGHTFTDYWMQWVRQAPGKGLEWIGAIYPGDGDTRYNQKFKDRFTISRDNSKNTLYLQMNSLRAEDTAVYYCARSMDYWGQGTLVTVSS VL: DIVMTQSPDSLAVSLGERATINCRASKTVDSYGNSFMHWYQQKPGQPPKLLIYHSSNLESGVPDRFSGSGSGTDFTLTISSLQAEDVAVYYCLQTIEDPYTFGQGTKLEIK ?
5.22e+06

Which kon reading was recorded for the binder DM2 (antibody, V domains shown, also called mH10/mL14) VH: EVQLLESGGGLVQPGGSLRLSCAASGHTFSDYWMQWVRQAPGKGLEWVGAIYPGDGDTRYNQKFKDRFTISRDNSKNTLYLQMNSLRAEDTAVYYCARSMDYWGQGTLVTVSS VL: DIVMTQSPDSLAVSLGERATINCRASKTVDSYGNSFMHWFQQKPGQPPKLLIYHSSNLESGVPDRFSGSGSGTDFTLTISSLQAEDVAVYYCLQTIEHPYTFGQGTKLEIK ?
2.48e+06

Which kon reading was recorded for the binder DM9 (antibody, V domains shown, also called mH10/mL18) VH: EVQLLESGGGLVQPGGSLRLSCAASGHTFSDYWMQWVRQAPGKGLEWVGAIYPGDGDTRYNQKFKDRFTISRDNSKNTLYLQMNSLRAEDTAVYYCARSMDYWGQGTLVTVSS VL: DIVMTQSPDSLAVSLGERATINCRASKTVDSYGSNFMHWYQQKPGQPPKLLIYHSSNLESGVPDRFSGSGSGTDFTLTISSLQAEDVAVYYCLQTIEHPYTFGQGTKLEIK ?
1.87e+06

Which kon reading was recorded for the binder DM5 (antibody, V domains shown, also called mH10/mL16) VH: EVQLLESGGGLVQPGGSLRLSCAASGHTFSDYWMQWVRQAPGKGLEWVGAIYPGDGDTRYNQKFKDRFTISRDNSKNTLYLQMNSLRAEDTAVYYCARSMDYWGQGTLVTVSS VL: DIVMTQSPDSLAVSLGERATINCRASKTVDSYGNSFMHWFQQKPGQPPKLLIYHSSNLESGVPDRFSGSGSGTDFTLTISSLQAEDVAVYYCLQTIEFPYTFGQGTKLEIK ?
3.91e+06

Which kon reading was recorded for the binder DM31 (antibody, V domains shown, also called mH10/mL19) VH: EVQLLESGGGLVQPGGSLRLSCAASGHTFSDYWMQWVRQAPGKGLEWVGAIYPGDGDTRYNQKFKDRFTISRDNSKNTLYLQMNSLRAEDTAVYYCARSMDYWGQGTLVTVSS VL: DIVMTQSPDSLAVSLGERATINCRASKTVDSYGNSFMHWYQQKPGQPPKLLIYHSSNLESGVPDRFSGSGSGTDFTLTISSLQAEDVAVYYCLQTIEDSYTFGQGTKLEIK ?
2.1e+06

Which kon reading was recorded for the binder DP99 (antibody, V domains shown, also called pH99/pL99) VH: EVMLAESGGGLVQPGGSLQLSCAASGFTFSIYAMSWVRQTPEKRLEWVATISGGDTYTYYADSVKGRFTISRDNAKNTLYLHMTGLRSEDTALYYCARHGYDDFDYWGLGTTLTVSS VL: DVVLTQIPLTLSVTIGQPATISCKSSQSLLDNDGETYLNWLLVRPGQSPKRLIYQVSKLDSGFPERFTGGGSGTDFTLKISRVEAEDLGIYYCWQGTHFPHTFGGGTKLEIK ?
2.9e+07

Which kon reading was recorded for the binder DM21 (antibody, V domains shown, also called mH1/mL2) VH: EVQLLESGGGLVQPGGSLRLSCAASGHTFSDYWMQWVRQAPGKGLEWIGAIYPGDGDTRYNQKFKDRFTISRDNSKNTLYLQMNSLRAEDTAVYYCARSMDYWGQGTLVTVSS VL: DIVMTQSPDSLAVSLGERATINCRASKTVDSYGNSFMHWFQQKPGQPPKLLIYHSSNLESGVPDRFSGSGSGTDFTLTISSLQAEDVAVYYCLQTIEDPYTFGQGTKLEIK ?
8.86e+06

Which kon reading was recorded for the binder DM30 (antibody, V domains shown, also called mH10/mL3) VH: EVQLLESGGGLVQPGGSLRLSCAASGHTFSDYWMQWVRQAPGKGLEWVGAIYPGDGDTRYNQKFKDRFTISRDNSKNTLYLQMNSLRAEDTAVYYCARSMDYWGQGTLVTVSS VL: DIVMTQSPDSLAVSLGERATINCRASKTVDSYGNSFMHWYQQKPGQPPKLLIYHSSNLESGVPDRFSGSGSGTDFTLTISSLQAEDVAVYYCLQTIEDPYTFGQGTKLEIK ?
5.34e+06
